Each record here notes measured inhibition at 1 µM.
target: human FLT-3 (Arg571-Ser993) (Homo sapiens); construct: human FLT-3 (Arg571-Ser993); GST (N); purchased Cell Signaling Technology; host or cells: baculovirus expression system; experiment: FLT-3 kinase assay (HTScan kit, DELFIA); assay type: biochemical; settings: compound at 1 μM; read-out: FLT-3 1 μM, % of inhibition relative to control
Give the value, in units of %, as a plain number.

// below: answered compounds
{"columns": ["COMPOUND", "TEST_TARGET", "inhibition at 1 µM [%]"],
 "data": [
  ["Cc1cc(/C=C2\\C(=O)Nc3ccc(F)cc32)c2cccccc1-2", "human FLT-3 (Arg571-Ser993) (Homo sapiens)", 93.2],
  ["Cc1cc(C=C2C(=O)Nc3ccccc32)c2cccccc1-2", "human FLT-3 (Arg571-Ser993) (Homo sapiens)", 61.5],
  ["O=C1Nc2ccc(F)cc2/C1=C/c1cc(Br)c2cccccc1-2", "human FLT-3 (Arg571-Ser993) (Homo sapiens)", 69.7],
  ["CN(C)Cc1c(/C=C2/C(=O)Nc3ccc(F)cc32)cc2cccccc1-2", "human FLT-3 (Arg571-Ser993) (Homo sapiens)", 49.8],
  ["O=C1Nc2ccccc2/C1=C/c1cc2cccccc-2c1", "human FLT-3 (Arg571-Ser993) (Homo sapiens)", 85.6]
]}

Enter reported inhibition at 1 µM observed with human FLT-3 (Arg571-Ser993) (Homo sapiens) for Cc1cc(C=C2C(=O)Nc3ccccc32)c2ccccc(OCCCN(C)C)c1-2
85.4

Can you look up inhibition at 1 µM on human FLT-3 (Arg571-Ser993) (Homo sapiens) for Cc1cc(/C=C2/C(=O)Nc3ccc(F)cc32)c2cccccc1-2 ?
79

Test system human FLT-3 (Arg571-Ser993) (Homo sapiens); read-out inhibition at 1 µM; what value for Cc1cc(C)c2ccc(/C=C3/C(=O)Nc4ccccc43)c-2c(C)c1 ?
3.8

Field: inhibition at 1 µM (human FLT-3 (Arg571-Ser993) (Homo sapiens)). Entry: CN(C)Cc1cc(/C=C2/C(=O)Nc3ccc(F)cc32)c2cccccc1-2
30.9

###

Collected inhibition at 1 µM values appear next to each entry.
Molecular target: human EGFR (His672-Ala1210) (Homo sapiens, UniProt P00533)
Construct: human EGFR (His672-Ala1210); GST (N); purchased Cell Signaling Technology; host or cells: baculovirus expression system
Sequence (P00533 672-1210): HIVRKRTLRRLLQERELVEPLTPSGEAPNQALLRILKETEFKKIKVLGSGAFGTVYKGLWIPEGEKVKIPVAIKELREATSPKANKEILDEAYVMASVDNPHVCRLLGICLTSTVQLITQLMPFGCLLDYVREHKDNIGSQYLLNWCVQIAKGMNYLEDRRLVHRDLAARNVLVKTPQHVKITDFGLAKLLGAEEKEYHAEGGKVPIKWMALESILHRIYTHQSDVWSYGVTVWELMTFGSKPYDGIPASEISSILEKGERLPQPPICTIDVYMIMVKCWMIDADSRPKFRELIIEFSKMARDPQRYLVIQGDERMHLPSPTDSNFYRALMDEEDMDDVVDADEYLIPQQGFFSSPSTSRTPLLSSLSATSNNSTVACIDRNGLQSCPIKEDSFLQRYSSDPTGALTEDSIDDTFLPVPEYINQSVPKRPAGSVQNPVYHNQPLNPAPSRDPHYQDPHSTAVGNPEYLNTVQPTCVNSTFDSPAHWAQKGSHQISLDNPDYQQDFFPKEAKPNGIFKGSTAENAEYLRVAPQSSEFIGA
Experiment: EGFR kinase assay (HTScan kit, DELFIA)
Type: biochemical
Details: compound at 1 μM; read-out: EGFR 1 μM, % of inhibition relative to control
Description: Compounds 1-100 were treated for their efficacy in inhibiting activities of FLT-3, c-KIT, KDR/Flk-1, PDGFR-beta, EGFR, and PKC kinases by biochemical DELFIA (Dissociation Enhanced Lanthanide FIA) assays according to the procedure described below. The assays were conducted by, Division of Cell Engineering, Biomedical Engineering Research Laboratories, Industrial Technology Research Institute, Bldg. 53, 195, sec. 4, Chung Hsing Rd. Chutung, Hsinchu, Taiwan 310, R.O.C. […]

{"columns": ["COMPOUND", "inhibition at 1 µM"],
 "data": [
  ["O=C1Nc2ccc(F)cc2/C1=C/c1cc(Cl)c2cccccc1-2 [Compound 46]", "18.5%"],
  ["Cc1cc(C=C2C(=O)Nc3ccccc32)c2cccccc1-2 [Compound 37]", "13.6%"],
  ["Cc1ccc2c(c1)/C(=C\\c1ccc3cccccc1-3)C(=O)N2 [Compound 47]", "14.6%"],
  ["O=C1Nc2ccc(F)cc2/C1=C\\c1cc(Br)c2cccccc1-2 [Compound 51]", "11.5%"]
]}

Give inhibition at 1 µM (human EGFR (His672-Ala1210) (Homo sapiens, UniProt P00533)) of the following compound: O=C1Nc2ccccc2/C1=C/c1cc2cccccc-2c1 [Compound 33]
13%

Request - read-out inhibition at 1 µM | tested on human EGFR (His672-Ala1210) (Homo sapiens, UniProt P00533) | compound Cc1cc(/C=C2/C(=O)Nc3ccccc32)c2cccccc1-2 [Compound 36]
10.9%

Item: O=C1Nc2ccc(-c3ccccc3)cc2/C1=C/c1ccc2cccccc1-2 [Compound 34] Test system: human EGFR (His672-Ala1210) (Homo sapiens, UniProt P00533) Read-out: inhibition at 1 µM Value: ?
11.7%

Please provide the recorded inhibition at 1 µM for COc1ccc2c(c1)/C(=C/c1ccc3cccccc1-3)C(=O)N2 [Compound 44] , tested on human EGFR (His672-Ala1210) (Homo sapiens, UniProt P00533).
9.3%

###

molecular target: human c-KIT (Thr544-Val976) (Homo sapiens, UniProt P10721); construct: human c-KIT (Thr544-Val976); GST (N); purchased Cell Signaling Technology; host or cells: baculovirus expression system; assay: c-KIT kinase assay (HTScan kit, DELFIA); assay type: biochemical; conditions: compound at 0.1 μM; read-out: c-KIT 0.1 μM, % of inhibition relative to control
Sequence (P10721 544-976): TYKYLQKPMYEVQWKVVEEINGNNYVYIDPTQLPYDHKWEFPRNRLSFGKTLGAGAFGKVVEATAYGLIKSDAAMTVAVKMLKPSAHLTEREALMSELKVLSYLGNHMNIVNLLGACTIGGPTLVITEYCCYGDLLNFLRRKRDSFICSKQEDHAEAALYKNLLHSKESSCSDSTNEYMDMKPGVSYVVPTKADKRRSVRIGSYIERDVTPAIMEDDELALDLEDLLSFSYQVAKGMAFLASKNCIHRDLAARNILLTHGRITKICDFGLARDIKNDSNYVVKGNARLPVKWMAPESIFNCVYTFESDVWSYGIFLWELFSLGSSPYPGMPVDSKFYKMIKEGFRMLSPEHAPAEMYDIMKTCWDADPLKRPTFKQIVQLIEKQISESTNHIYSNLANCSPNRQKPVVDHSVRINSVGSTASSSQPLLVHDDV
Values of inhibition at 0.1 µM greater than or equal to 40% map to true; values below map to false.

Take a look at these entries with their results.
{"columns": ["COMPOUND", "ASSIGNED_LABEL"],
 "data": [
  ["Cc1cc(C=C2C(=O)Nc3ccc(F)cc32)c2ccccc(OCCCN3CCOCC3)c1-2 (mixture of isomers) [Compound 87]", "true"],
  ["CN(C)Cc1cc(/C=C2/C(=O)Nc3ccccc32)c2cccccc1-2 [Compound 58]", "false"],
  ["Cc1c2cccccc-2c(C)c1/C=C1/C(=O)Nc2ccc(F)cc21 [Compound 66]", "false"],
  ["O=C1Nc2ccc(F)cc2/C1=C/c1cc(Cl)c2cccccc1-2 [Compound 46]", "true"],
  ["COc1ccc2c(c1)/C(=C/c1ccc3cccccc1-3)C(=O)N2 [Compound 44]", "false"]
]}

Please indicate if the recorded inhibition at 0.1 µM for Cc1cc(C=C2C(=O)Nc3ccc(C(F)(F)F)cc32)c2ccccc(OCCCN(C)C)c1-2 [Compound 100] meets or exceeds 40%.
true

Please tell me: is the compound O=C1Nc2ccc(F)cc2/C1=C\c1ccc2cccccc1-2 [Compound 25] at or over 40% in terms of inhibition at 0.1 µM?
true

# check: inhibition at 0.1 µM of Cc1ccc2c(c1)/C(=C/c1ccc3cccccc1-3)C(=O)N2 [Compound 48] is greater than or equal to 40%
false

Is the recorded value of inhibition at 0.1 µM equal to or greater than 40% for this compound? Cc1cc(/C=C2/C(=O)Nc3ccccc32)c2cccccc1-2 [Compound 36]
true

Could you tell me if the measured inhibition at 0.1 µM of O=C1Nc2ccc(F)cc2/C1=C/c1ccc2cccccc1-2 [Compound 26] reaches 40% or more?
true

###

Biological target: human FLT-3 (Arg571-Ser993) (Homo sapiens, UniProt P36888)
Construct: human FLT-3 (Arg571-Ser993); GST (N); purchased Cell Signaling Technology; host or cells: baculovirus expression system
Sequence (P36888 571-993): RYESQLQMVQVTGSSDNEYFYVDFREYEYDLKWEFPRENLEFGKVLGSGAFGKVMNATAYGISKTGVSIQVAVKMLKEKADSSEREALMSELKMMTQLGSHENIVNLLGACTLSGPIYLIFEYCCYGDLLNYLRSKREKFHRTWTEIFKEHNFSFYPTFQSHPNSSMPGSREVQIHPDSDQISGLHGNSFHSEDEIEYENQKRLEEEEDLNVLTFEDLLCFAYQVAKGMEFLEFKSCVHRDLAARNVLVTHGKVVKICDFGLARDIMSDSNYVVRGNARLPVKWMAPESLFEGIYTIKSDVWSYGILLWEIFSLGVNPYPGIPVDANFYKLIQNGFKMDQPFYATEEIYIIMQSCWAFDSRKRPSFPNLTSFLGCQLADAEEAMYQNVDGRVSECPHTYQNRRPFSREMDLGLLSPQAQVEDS
Experiment: FLT-3 kinase assay (HTScan kit, DELFIA)
Assay type: biochemical
Settings: compound at 0.1 μM; read-out: FLT-3 0.1 μM, % of inhibition relative to control
Description: Compounds 1-100 were treated for their efficacy in inhibiting activities of FLT-3, c-KIT, KDR/Flk-1, PDGFR-beta, EGFR, and PKC kinases by biochemical DELFIA (Dissociation Enhanced Lanthanide FIA) assays according to the procedure described below. The assays were conducted by, Division of Cell Engineering, Biomedical Engineering Research Laboratories, Industrial Technology Research Institute, Bldg. 53, 195, sec. 4, Chung Hsing Rd. Chutung, Hsinchu, Taiwan 310, R.O.C. […]
Each item that follows carries a reported inhibition at 0.1 µM.
Numeric only. Scale: %

Below: 2 compounds and their reported inhibition at 0.1 µM.
{"columns": ["COMPOUND", "MEASUREMENT_UNIT", "inhibition at 0.1 µM"],
 "data": [
  ["O=C1Nc2ccc(F)cc2/C1=C\\c1ccccc2cccc1-2 [Compound 52]", "%", 14.1],
  ["O=C1Nc2ccc(F)cc2/C1=C/c1c(Br)c2cccccc-2c1Br [Compound 61]", "%", 62.5]
]}

Lab note: next compound to report on.
Could you share which inhibition at 0.1 µM value was measured for COC(=O)c1cc(/C=C2\C(=O)Nc3ccccc32)c2cccccc1-2 [Compound 16] ?
7.7

###

biological target: human c-KIT (Thr544-Val976) (Homo sapiens, UniProt P10721); construct: human c-KIT (Thr544-Val976); GST (N); purchased Cell Signaling Technology; host or cells: baculovirus expression system; test: c-KIT kinase assay (HTScan kit, DELFIA); type: biochemical; details: compound at 1 μM; read-out: c-KIT 1 μM, % of inhibition relative to control
Outcome label depends on inhibition at 1 µM relative to 50%: at/above gives Fulfilled, below gives Not fulfilled.

Recorded results for 6 compounds are shown here.
{"columns": ["SMILES_STRUCTURE", "ASSIGNED_LABEL"],
 "data": [
  ["O=C1Nc2ccccc2/C1=C\\c1ccc2cccccc1-2", "Not fulfilled"],
  ["O=C1Nc2ccccc2/C1=C\\c1cc2cccccc-2c1", "Fulfilled"],
  ["O=C1Nc2ccc(F)cc2/C1=C\\c1ccc2cccccc1-2", "Fulfilled"],
  ["Cc1cc(C=C2C(=O)Nc3ncccc32)c2ccccc(OCCCN(C)C)c1-2", "Fulfilled"],
  ["O=C1Nc2c(Cl)cccc2/C1=C/c1ccc2cccccc1-2", "Not fulfilled"],
  ["Cc1ccc2c(c1)/C(=C\\c1ccc3cccccc1-3)C(=O)N2", "Not fulfilled"]
]}

As a next step, examine the compound that follows.
Answer whether inhibition at 1 µM of O=C1Nc2cc(Br)ccc2/C1=C/c1ccc2cccccc1-2 is greater than or equal to 50%.
Not fulfilled
